Biological target: NADPH oxidase 5 (Homo sapiens)
Experiment: compounds shifting NOX5 Amplex Red fluorescence – cell-based, HEK293-NOX5, NOX inhibitor project, primary screen (AID 1161)
Conditions: HEK293-NOX5, ionomycin, 45 min, higher = more signal
Would you mind labelling by z-score? At or over -2 is 1, under is -1.

Q) Check if z-score >= -2 (inclusive). Item: `CC(C)N1C(=O)C[C@@](C(=O)NC2CC2)(c2ccc([N+](=O)[O-])cc2)[C@H]1c1ccc(CO)cc1`
A) 1

Q) Same question, `O=C(O)[C@@H]1[C@@H]2C(=O)N(c3ccccc3)C(=O)[C@@H]2C[C@@H]1Sc1ccccc1` this time
A) 1

Q) Field entry: `Cc1ccc(S[C@]2(C(=O)NC(C)C)CC(=O)N(Cc3cc(C(F)(F)F)cc(C(F)(F)F)c3)[C@@H]2c2ccc(CO)cc2)cc1`
A) 1

Q) Try the molecule COc1cc2c(cc1O)C(c1ccc(CN3CCCC3)cc1)N(Cc1cc3c(cc1Br)OCO3)CC2 (stereo not given)
A) -1

Q) Ok, now `COC(=O)[C@@]1(Cc2ccc(OC)cc2)[C@H]2c3cc(C(=O)N4CCCC4)n(CCO)c3C[C@H]2CN1C(=O)c1ccccc1`
A) -1

Q) Same question for `CN(C)C(=O)[C@]1(Cc2ccccc2CN=[N+]=[N-])N=C(c2ccc(OCCCO)cc2)O[C@@H]1c1ccccc1` please.
A) 1

Q) Okay, and `C=CCNC(=O)[C@@H]1[C@H]2C(=O)O[C@H](c3ccccc3)[C@H](c3ccccc3)N2[C@H](c2ccc(O)cc2)[C@@]12C(=O)N(C(=O)OCCOC)c1ccc(C#CC3=CCCCC3)cc12` ?
A) 1

Q) Next entry: `CCCC=C(CCC)[C@@H](NC(=O)c1cccs1)c1ccc(C(=O)OC)cc1`
A) 1

Q) Then `[N-]=[N+]=Nc1ccccc1C[C@@]1(C(=O)N2CCOCC2)N=C(c2ccc(OCCCO)cc2)O[C@@H]1c1ccccc1` ?
A) 1

Q) Proceed to O=C1C2C=CC(C(O)C3CC=CCC3)N(Nc3ccccc3)C2C(=O)N1c1ccccc1 (stereo not given)
A) -1

Q) Try this molecule next: `C=CCNC(=O)[C@H]1[C@@H]2C(=O)O[C@@H](c3ccccc3)[C@@H](c3ccccc3)N2[C@@H](c2ccccc2OCCO)[C@]12C(=O)N(C(=O)OCCOC)c1ccc(C#CC3(O)CCCCCC3)cc12`
A) 1

Q) Further, for `CC(C)N1C(=O)c2ccccc2[C@@H](C(=O)NCCN2CCOCC2)[C@@H]1c1ccc(CO)cc1` ?
A) 1

Q) Quick one: `COCCCNC(=O)[C@@H]1c2ccccc2C(=O)N(C(C)C)[C@H]1c1ccc(CO)cc1`
A) 1

Q) Could you do the same for `COCCOC(=O)N1C(=O)[C@@]2(c3cc(C#CC4(O)CCCCCC4)ccc31)[C@H](C(=O)Nc1nc3ccccc3s1)[C@H]1C(=O)O[C@H](c3ccccc3)[C@H](c3ccccc3)N1[C@@H]2c1ccc(O)cc1` , please?
A) 1

Q) Then this molecule: CN(C)c1ccc(C(O)C2C=CC3C(=O)NC(=O)C3N2Nc2ccccn2)cc1 (stereo not given)
A) -1

The reported numbers originate from PubChem BioAssay.
